MIC values by entry
tested on: Staphylococcus aureus; test: Antibacterial activity against methicillin-resistant Staphylococcus aureus ATCC 700699 by NCCLS two-fold dilution method; assay type: functional

Compound	MIC
CCn1cc(C(=O)O)c(=O)c2cc(F)c(N3CCN(C(c4ccco4)c4nnnn4C(C)(C)C)CC3)cc21 (centres undefined)	50 µg/mL
CCn1cc(C(=O)O)c(=O)c2cc(F)c(N3CCN(C(c4ccc(C(C)C)cc4)c4nnnn4C(C)(C)C)CC3)cc21 (centres undefined)	50 µg/mL
CCn1cc(C(=O)O)c(=O)c2cc(F)c(N3CCN(C(c4ccc(C(C)C)cc4)c4nnnn4C4CCCCC4)CC3)cc21 (centres undefined)	50 µg/mL
CC(C)c1ccc(C(c2nnnn2C(C)(C)C)N2CCN(c3cc4c(cc3F)c(=O)c(C(=O)O)cn4Cc3ccc(C(F)(F)F)cc3)CC2)cc1 (centres undefined)	3.12 µg/mL

----------
tested on: Staphylococcus aureus; test: Antibacterial activity against gentamicin-resistant Staphylococcus aureus ATCC 33592 after 24 hrs by spectrophotometric analysis; type: functional, organism-based; details: Staphylococcus aureus, ATCC 33592, 24 h; read-out: IC50
Measure: IC50 (µg/mL)

Compound	Numeric Readout
CC(C)c1ccc(C(c2nnnn2C(C)(C)C)N2CCN(c3cc4c(cc3F)c(=O)c(C(=O)O)cn4Cc3ccc(C(F)(F)F)cc3)CC2)cc1 (centres undefined)	0.8
COc1ccc(C(c2nnnn2C(C)(C)C)N2CCN(c3cc4c(cc3F)c(=O)c(C(=O)O)cn4Cc3ccc(C(F)(F)F)cc3)CC2)c(OC)c1OC (centres undefined)	50
CC(C)(C)n1nnnc1C(c1ccco1)N1CCN(c2cc3c(cc2F)c(=O)c(C(=O)O)cn3Cc2ccc(C(F)(F)F)cc2)CC1 (centres undefined)	50
CCn1cc(C(=O)O)c(=O)c2cc(F)c(N3CCN(C(c4ccncc4)c4nnnn4C4CCCCC4)CC3)cc21 (centres undefined)	0.1

----------
IC50 values by entry
system: Staphylococcus aureus; assay: Antibacterial activity against Staphylococcus aureus ATCC 25923 after 24 hrs by spectrophotometric analysis; format: functional, organism-based; details: Staphylococcus aureus, ATCC 25923, 24 h; read-out: IC50
Measure: IC50 (µg/mL)

Compound	Unit Tag	Censoring Sign	Numeric Readout
CC(C)(C)n1nnnc1C(c1ccncc1)N1CCN(c2cc3c(cc2F)c(=O)c(C(=O)O)cn3Cc2ccc(C(F)(F)F)cc2)CC1 (centres undefined)	µg/mL	=	50
O=C(O)c1cn(Cc2ccc(C(F)(F)F)cc2)c2cc(N3CCN(C(c4ccco4)c4nnnn4C4CCCCC4)CC3)c(F)cc2c1=O (centres undefined)	µg/mL	=	0.2
CCn1cc(C(=O)O)c(=O)c2cc(F)c(N3CCN(C(c4ccco4)c4nnnn4C(C)(C)C)CC3)cc21 (centres undefined)	µg/mL	=	0.3
O=C(O)c1cn(Cc2ccc(C(F)(F)F)cc2)c2cc(N3CCN(C(c4ccncc4)c4nnnn4C4CCCCC4)CC3)c(F)cc2c1=O (centres undefined)	µg/mL	>	50

----------
MIC values by entry
tested on: Staphylococcus aureus; test: Antibacterial activity against methicillin-resistant Staphylococcus aureus ATCC 700699 after 24 hrs by spectrophotometric analysis; assay type: functional, organism-based; conditions: Staphylococcus aureus, ATCC 700699, 24 h
Measure: MIC (µg/mL)

Molecule	Unit Tag	Censoring Sign	Numeric Readout
CC(C)(C)n1nnnc1C(c1ccco1)N1CCN(c2cc3c(cc2F)c(=O)c(C(=O)O)cn3Cc2ccc(C(F)(F)F)cc2)CC1 (configuration not stated)	µg/mL	=	50
COc1ccc(C(c2nnnn2C(C)(C)C)N2CCN(c3cc4c(cc3F)c(=O)c(C(=O)O)cn4Cc3ccc(C(F)(F)F)cc3)CC2)c(OC)c1OC (configuration not stated)	µg/mL	=	50
CCn1cc(C(=O)O)c(=O)c2cc(F)c(N3CCN(C(c4ccc(OC)c5ccccc45)c4nnnn4C(C)(C)C)CC3)cc21 (configuration not stated)	µg/mL	=	6.9
COc1ccc(C(c2nnnn2C2CCCCC2)N2CCN(c3cc4c(cc3F)c(=O)c(C(=O)O)cn4Cc3ccc(C(F)(F)F)cc3)CC2)c2ccccc12 (configuration not stated)	µg/mL	>	50
CC(C)(C)n1nnnc1C(c1ccccc1)N1CCN(c2cc3c(cc2F)c(=O)c(C(=O)O)cn3Cc2ccc(C(F)(F)F)cc2)CC1 (configuration not stated)	µg/mL	=	50
CC(C)(C)n1nnnc1C(c1ccc(F)cc1)N1CCN(c2cc3c(cc2F)c(=O)c(C(=O)O)cn3Cc2ccc(C(F)(F)F)cc2)CC1 (configuration not stated)	µg/mL	=	19.8
COc1ccc(C(c2nnnn2C(C)(C)C)N2CCN(c3cc4c(cc3F)c(=O)c(C(=O)O)cn4Cc3ccc(C(F)(F)F)cc3)CC2)c2ccccc12 (configuration not stated)	µg/mL	=	50

Each recorded value in this set is attributed to ChEMBL document CHEMBL3232987.
